Tested on: Myzus persicae (green peach aphid)
protocol: Activity against Myzus persicae on cabbage plants, feeding/residual contact activity, spray chamber
Assay type: in vivo
recordedConditions: 144 h, 6 days after treatment
Measured mortality at 200 ppm, listed per entry for reference.

In the examples that follow, each entry is paired with its recorded mortality at 200 ppm.
>>> print(df.to_string())
                                   molecule                          targetdesc  assayvalue
0  CON1CCC2(CC1)C(=O)C(c1c(C)cc(C)cc1C)([N+](=O)[O-])C(=O)N2C (stereo not drawn) [Compound P1.13]  Myzus persicae (green peach aphid)       ≥ 80%
1  CON1CCC2(CC1)C(=O)C(Cl)(c1c(C)cc(C)cc1C)C(=O)N2CC1CCCO1 (stereo not drawn) [Compound P1.8]  Myzus persicae (green peach aphid)       ≥ 80%

Prompt line: Can you look up the measured mortality at 200 ppm of COCCN1C(=O)C(Cl)(c2c(C)cc(Cl)cc2C)C(=O)C12CCN(OC)CC2 (stereo not drawn) [Compound P1.14] for me?
Response line: ≥ 80%

src = patent US20140011676A1
